Tested on: Cryptococcus neoformans TIMM0354
Type: cell-based
Quantity Measured: MIC (μg/ml) C.n. (µg/mL)
# unit: µg/mL | format: bare number

// query Lab note: need MIC (μg/ml) C.n. with Cryptococcus neoformans TIMM0354 for entry CCCCCCCCCCCCCC1CC(=O)N[C@@H](C)C(=O)N[C@@H](CCCN)C(=O)N[C@@H](CO)C(=O)N[C@@H](CO)C(=O)N[C@@H](CO)C(=O)N[C@H](CC(N)=O)C(=O)N[C@H]([C@@H](C)O)C(=O)NCC(=O)O1 (mixture of isomers) , please look it up.
// result 3.12

// query Similarly, CCCCCCCCCCCCCC1CC(=O)N[C@@H](C)C(=O)N[C@@H](CCCN)C(=O)NCC(=O)N[C@@H](CO)C(=O)N[C@@H](CO)C(=O)N[C@H](CC(N)=O)C(=O)N[C@H]([C@@H](C)O)C(=O)NCC(=O)O1 (mixture of isomers) ?
// result 3.12

// query And for CCCCCCCCCCCCCC1CC(=O)N[C@@H](C)C(=O)N[C@@H](CCCN)C(=O)N[C@@H](CCC(=O)O)C(=O)N[C@@H](CO)C(=O)N[C@@H](CO)C(=O)N[C@H](CC(N)=O)C(=O)N[C@H]([C@@H](C)O)C(=O)NCC(=O)O1 (mixture of isomers) ?
// result 6.25

// query What about this molecule? CCCCCCCCCCCCCC1CC(=O)N[C@@H](C)C(=O)N[C@@H](CCCN)C(=O)N[C@@H](CC(N)=O)C(=O)N[C@@H](CO)C(=O)N[C@@H](CO)C(=O)N[C@H](CC(N)=O)C(=O)N[C@H]([C@@H](C)O)C(=O)NCC(=O)O1 (mixture of isomers)
// result 3.12
